- Test system: B cell receptor-mediated activation of B cells in human blood (CD69 expression)
- experiment: Inhibition of B cell activation in whole blood measured by CD69 expression
- Type: cell-based
- run-conditions: anti-IgM stimulation, 20 hours, CD69-positive cells that are also CD20-positive, read-out: HWB IC50
assay-endpoint: IC50 (nM)

CN(C)C(=O)c1ccc(Nc2cc(-c3ccnc(-n4ncc5cc(C(C)(C)C)cc(F)c5c4=O)c3CO)nn(C)c2=O)nc1 ... 30
Cn1nc(-c2ccnc(-n3ncc4cc(C(C)(C)C)cc(F)c4c3=O)c2CO)cc(Nc2ccc(C(=O)N3CCOCC3)cn2)c1=O ... 14
CN(C)C(=O)c1ccc(Nc2cc(-c3ccnc(-n4ccc5cc(C6CC6)cc(F)c5c4=O)c3CO)nn(C)c2=O)nc1 ... 77
Cn1cc(-c2nccc(-n3ncc4cc(C(C)(C)C)cc(F)c4c3=O)c2CO)cc(Nc2ccc(C(=O)N3CCOCC3)cn2)c1=O ... 74

A. Cn1nc(-c2ccnc(-n3ccc4cc(C(C)(C)C#N)cc(F)c4c3=O)c2CO)cc(Nc2ccc(OC(C)(C)CN3CC(F)(F)C3)cn2)c1=O
B. Cn1cc(-c2ccnc(-n3ncc4cc(C(C)(C)C)cc(F)c4c3=O)c2CO)cc(Nc2ccc(C(=O)N3CCOCC3)cn2)c1=O
Problem: Given the listed records, identify the one among A and B with higher IC50. Identify your pick by its label.
Solution: A
(A: 106 nM, B: 27 nM)

###

- Tested on: B cell receptor-mediated activation of B cells in human blood (CD69 expression)
- experiment: Inhibition of B cell activation in whole blood measured by CD69 expression
- Format: cell-based
- run-conditions: anti-IgM stimulation, 20 hours, CD69-positive cells that are also CD20-positive, read-out: HWB IC50
pIC50: −log10 of the molar value.
assay-endpoint: pIC50

CN1CCn2nc(Nc3cc(-c4ccnc(-n5ncc6cc(C(C)(C)C)ccc6c5=O)c4CO)nn(C)c3=O)cc2C1 [Compound I-19] ... 7.62
Cn1cc(-c2ccnc(-n3ccc4cc(C5CC5)cc(F)c4c3=O)c2CO)cc(Nc2ccc(C(=O)N3CCOCC3)cn2)c1=O [Compound I-11] ... 7.82
CN1CCC[C@H]1c1ccc(Nc2cc(-c3ccnc(-n4ncc5cc(C(C)(C)C)ccc5c4=O)c3CO)nn(C)c2=O)nc1 [Compound I-12] ... 7.55
Cn1nc(-c2ccnc(-n3ncc4cc(C(C)(C)C)ccc4c3=O)c2CO)cc(Nc2ccc(OC(C)(C)CN3CC(F)(F)C3)cn2)c1=O [Compound I-33] ... 6.67
Cn1cc(-c2nccc(-n3ncc4cc(C(C)(C)C)cc(F)c4c3=O)c2CO)cc(Nc2ccc(S(C)(=O)=O)cn2)c1=O [Compound I-29] ... 6.79

a. CN1CCn2nc(Nc3cc(-c4ccnc(-n5ccc6cc(C7CC7)cc(F)c6c5=O)c4CO)nn(C)c3=O)cc2C1 [Compound I-20]
b. CCN1CCC(c2ccc(Nc3cc(-c4ccnc(-n5ncc6cc(C(C)(C)C)cc(F)c6c5=O)c4CO)nn(C)c3=O)nc2)CC1 [Compound I-14]
Problem: Kindly identify the item with the lower pIC50 figure among these two: a and b Please respond with the label that marks your chosen entry.
Solution: a

###

- Test system: B cell receptor-mediated activation of B cells in human blood (CD69 expression)
- experiment: Inhibition of B cell activation in whole blood measured by CD69 expression
- Assay type: cell-based
- run-conditions: anti-IgM stimulation, 20 hours, CD69-positive cells that are also CD20-positive, read-out: HWB IC50
- Source text: Inhibition of B Cell Activation in Whole Blood Measured by CD69 Expression A procedure to test the ability of Btk inhibitors to suppress B cell receptor-mediated activation of B cells in human blood is as follows: […] Using appropriate excitation and emission wavelengths for the fluorophores used, data are acquired and percent positive cell values are obtained using Cell Quest Software. Results are initially analyzed by FACS analysis software (Flow Jo).
assay-endpoint: IC50 (µM)

Sample records with IC50:
CN1CCC(c2ccc(Nc3cc(-c4ccnc(-n5ncc6cc(C(C)(C)C)ccc6c5=O)c4CO)nn(C)c3=O)nc2)CC1 ... 0.047
Cn1nc(-c2ccnc(-n3ncc4cc(C(C)(C)C)cc(F)c4c3=O)c2CO)cc(Nc2ccc(OC(C)(C)CN3CCC3)cn2)c1=O ... 0.003
Cn1nc(-c2ccnc(-n3ncc4cc(C(C)(C)C)ccc4c3=O)c2CO)cc(Nc2ccc(OC(C)(C)CN3CCC3)cn2)c1=O ... 0.028
CCN1CCn2nc(Nc3cc(-c4ccnc(-n5ccc6cc(C(C)(C)C)cc(F)c6c5=O)c4CO)nn(C)c3=O)cc2C1 ... 0.003
CN(C)C(=O)c1ccc(Nc2cc(-c3ccnc(-n4ncc5cc(C(C)(C)C)cc(F)c5c4=O)c3CO)cn(C)c2=O)nc1 ... 0.009
CN1CCn2nc(Nc3cc(-c4ccnc(-n5ncc6cc(C(C)(C)C)cc(F)c6c5=O)c4CO)nn(C)c3=O)cc2C1 ... 0.029

P. Cn1nc(-c2ccnc(-n3ncc4cc(C(C)(C)C)cc(F)c4c3=O)c2CO)cc(Nc2ccc(OC(C)(C)CN3CC(F)(F)C3)cn2)c1=O
Q. Cn1nc(Nc2cc(-c3ccnc(-n4ncc5cc(C(C)(C)C)cc(F)c5c4=O)c3CO)nn(C)c2=O)cc1CN1CCC1
Problem: # query: argmin of IC50 over P and Q To answer, give the label that identifies your chosen option.
Solution: Q

1. CN1CCC[C@H]1c1ccc(Nc2cc(-c3ccnc(-n4ncc5cc(C(C)(C)C)cc(F)c5c4=O)c3CO)nn(C)c2=O)nc1
2. Cn1nc(-c2ccnc(-n3ncc4cc(C(C)(C)C)cc(F)c4c3=O)c2CO)cc(Nc2ccc(S(C)(=O)=O)cn2)c1=O
Problem: Compare the recorded IC50 of 1 and 2 ; state which is larger. Pick one and reply with its label.
Solution: 2

I. CN1CCC(c2ccc(Nc3cc(-c4ccnc(-n5ncc6cc(C(C)(C)C)cc(F)c6c5=O)c4CO)nn(C)c3=O)nc2)CC1
II. CCN1CCn2nc(Nc3cc(-c4ccnc(-n5ncc6cc(C(C)(C)C)cc(F)c6c5=O)c4CO)nn(C)c3=O)cc2C1
Problem: Just curious, which one has the larger IC50 reading, I or II ? Answer = label.
Solution: II

###

- Tested on: B cell receptor-mediated activation of B cells in human blood (CD69 expression)
- experiment: Inhibition of B cell activation in whole blood measured by CD69 expression
- Format: cell-based
- run-conditions: anti-IgM stimulation, 20 hours, CD69-positive cells that are also CD20-positive, read-out: HWB IC50
assay-endpoint: IC50 (nM)

Reference set (2 entries):
Cn1nc(-c2ccnc(-n3ccc4cc(C(C)(C)C)cc(F)c4c3=O)c2CO)cc(Nc2cc3n(n2)CCN(C2COC2)C3)c1=O ... 6
Cn1nc(-c2ccnc(-n3ncc4cc(C(C)(C)C)cc(F)c4c3=O)c2CO)cc(Nc2cc3n(n2)CC[N+](C)([O-])C3)c1=O (stereo not drawn) ... 3500

a. Cn1nc(-c2ccnc(-n3ccc4cc(C(C)(C)C)cc(F)c4c3=O)c2CO)cc(Nc2ccc(OC(C)(C)CN3CC(F)(F)C3)cn2)c1=O
b. CN1CCn2nc(Nc3cc(-c4ccnc(-n5ccc6cc(C(C)(C)C#N)cc(F)c6c5=O)c4CO)nn(C)c3=O)cc2C1
c. Cn1nc(-c2ccnc(-n3ncc4cc(C(C)(C)C)ccc4c3=O)c2CO)cc(Nc2ccc(C(=O)N3CCOCC3)cn2)c1=O
d. Cn1nc(-c2ccnc(-n3ncc4cc(C(C)(C)C)cc(F)c4c3=O)c2CO)cc(Nc2cc3n(n2)CCN(C2COC2)C3)c1=O
Problem: Which order do these items take when sorted by rising IC50? List them. A ranking is expressed here by listing the labels in the requested order.
Solution: d, b, a, c
(d: 18 nM, b: 36 nM, a: 62 nM, c: 101 nM)

The measurements presented in this section are drawn from patent US8889682B2.
